Recorded measurements of growth AUC, one per entry
system: Coprococcus comes; test: growth AUC relative to DMSO control (median of replicates) (fraction); higher = more growth (less inhibition), active = hit call of the paper; conditions: 20 µM; 24 h

compound=CCN(CC)N=O reported_result="1.01 (inactive)"

Prompt: Find growth AUC (Coprococcus comes) for the entry CS(=O)(=O)c1cc(C(F)(F)F)ccc1C(=O)c1cnoc1C1CC1
Completion: 1.02 (inactive)

Prompt: Now consider CNC(=O)CSP(=O)(OC)OC and answer again.
Completion: 1.04 (inactive)

Prompt: Now consider COc1nc(C)nc(NC(=O)NS(=O)(=O)c2ccccc2CCC(F)(F)F)n1 and answer again.
Completion: 0.967 (inactive)

Prompt: Now consider O=C(O)C(F)(F)C(F)(F)C(F)(F)C(F)(F)C(F)(F)C(F)(F)C(F)(F)C(F)(F)F and answer again.
Completion: 1.01 (inactive)

Prompt: Now consider ClC1=C(Cl)C2(Cl)C3C4C=CC(C4)C3C1(Cl)C2(Cl)Cl (stereo not given) and answer again.
Completion: 1.02 (inactive)

Prompt: Now consider CC(C)=CC1C(C(=O)OCc2cccc(Oc3ccccc3)c2)C1(C)C (mixture of isomers) and answer again.
Completion: 0.992 (inactive)

Prompt: Now consider Cc1cc(Cl)ccc1O[C@H](C)C(=O)O and answer again.
Completion: 1.01 (inactive)

Prompt: Now consider O=C(Nc1ccccc1)c1ccccc1I and answer again.
Completion: 1.05 (inactive)

Prompt: Now consider C[C@@H](Oc1ccc(Oc2nc3ccc(Cl)cc3o2)cc1)C(=O)O and answer again.
Completion: 1.04 (inactive)

Prompt: Now consider CCCC1COC(Cn2cncn2)(c2ccc(Cl)cc2Cl)O1 (stereo not given) and answer again.
Completion: 0.941 (inactive)

Prompt: Now consider C[n+]1ccc(-c2cc[n+](C)cc2)cc1.O.[Cl-].[Cl-] and answer again.
Completion: 0.98 (inactive)
